Where do these numbers come from? They come from the supplement of paper PMC8728848.

target: Man(a1-6)Man; assay: glycan array binding signal (z-score within array); higher = stronger binding; settings: glycan notation: IUPAC condensed, linker removed
This is one part of a sample in which the strongest signals are shown more often than they occur.
Would you mind telling me the reported glycan array binding signal (z-score) of each entry?

A selection of reference data follows.
[
  {
    "binder": "CD72 ectodomain (Homo sapiens), P21854 (protein) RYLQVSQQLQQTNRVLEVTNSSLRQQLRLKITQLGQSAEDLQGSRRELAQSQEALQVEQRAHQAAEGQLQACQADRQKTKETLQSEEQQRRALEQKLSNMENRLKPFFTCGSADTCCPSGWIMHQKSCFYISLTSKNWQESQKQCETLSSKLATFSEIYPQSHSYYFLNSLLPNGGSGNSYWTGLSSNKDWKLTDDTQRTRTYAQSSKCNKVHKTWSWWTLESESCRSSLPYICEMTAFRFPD",
    "glycan array binding signal (z-score)": -0.096
  },
  {
    "binder": "Banana lectin (Musa acuminata) (protein) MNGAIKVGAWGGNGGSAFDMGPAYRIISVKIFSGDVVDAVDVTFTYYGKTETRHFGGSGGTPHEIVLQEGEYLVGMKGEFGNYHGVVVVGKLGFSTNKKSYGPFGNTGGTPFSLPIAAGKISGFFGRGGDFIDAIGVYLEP",
    "glycan array binding signal (z-score)": -0.076
  },
  {
    "binder": "CALR truncated at D342 (Homo sapiens) (protein) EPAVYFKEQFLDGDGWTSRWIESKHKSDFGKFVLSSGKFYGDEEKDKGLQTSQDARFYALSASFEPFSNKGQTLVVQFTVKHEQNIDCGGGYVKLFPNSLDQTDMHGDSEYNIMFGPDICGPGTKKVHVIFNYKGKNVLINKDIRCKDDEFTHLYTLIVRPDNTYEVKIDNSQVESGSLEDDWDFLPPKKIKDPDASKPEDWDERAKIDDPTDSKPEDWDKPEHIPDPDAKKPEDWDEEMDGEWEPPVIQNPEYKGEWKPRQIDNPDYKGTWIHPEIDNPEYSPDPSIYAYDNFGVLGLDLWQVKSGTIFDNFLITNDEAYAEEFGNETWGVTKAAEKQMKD",
    "glycan array binding signal (z-score)": 0.051
  },
  {
    "binder": "MD-2 (Homo sapiens) (protein) MLPFLFFSTLFSSIFTEAQKQYWVCNSSDASISYTYCDKMQYPISINVNPCIELKGSKGLLHIFYIPRRDLKQLYFNLYITVNTMNLPKRKEVICRGSDDDYSFCRALKGETVNTTISFSFKGIKFSKGKYKCVVEAISGSPEEMLFCLEFVILHQPNSN",
    "glycan array binding signal (z-score)": 0.081
  },
  {
    "binder": "Gal 4 (Canis lupus) (protein) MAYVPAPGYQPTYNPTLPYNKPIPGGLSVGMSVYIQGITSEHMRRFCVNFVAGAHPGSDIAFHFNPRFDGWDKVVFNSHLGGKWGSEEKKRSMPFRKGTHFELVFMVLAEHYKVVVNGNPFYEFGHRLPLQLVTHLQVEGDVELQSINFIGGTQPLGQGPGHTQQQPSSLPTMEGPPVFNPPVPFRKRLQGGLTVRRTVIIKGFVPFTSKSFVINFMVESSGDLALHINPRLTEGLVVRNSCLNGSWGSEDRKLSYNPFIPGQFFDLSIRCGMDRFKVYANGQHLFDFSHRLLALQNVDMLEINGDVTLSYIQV",
    "glycan array binding signal (z-score)": -0.148
  },
  {
    "binder": "EULS2 M1 (Oryza sativa) (protein) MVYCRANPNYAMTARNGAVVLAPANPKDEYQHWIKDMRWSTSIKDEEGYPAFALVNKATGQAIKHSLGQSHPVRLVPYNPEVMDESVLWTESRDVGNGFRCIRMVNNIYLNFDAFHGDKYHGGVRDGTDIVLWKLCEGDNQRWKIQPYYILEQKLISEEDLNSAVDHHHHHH",
    "glycan array binding signal (z-score)": 3.16
  },
  {
    "binder": "Surfactant Protein D (rat); Neck + Carbohydrate Recognition Domain (NCRD) (Rattus norvegicus) (protein) MLLFLLSALVLLTQPLGYLEAEMKTYSHRTMPSACTLVMCSSVESGLPGRDGRDGREGPRGEKGDPGLPGAAGQAGMPGQAGPVGPKGDNGSVGEPGPKGDTGPSGPPGPPGVPGPAGREGALGKQGNIGPQGKPGPKGEAGPKGEVGAPGMQGSAGARGAGPKGERGVPGERGVPGNTGAAGSAGAMGPQGSPGARGPPGLKGDKGIPGDKGAKGESGLPDVASLRQQVEALQGQVQHLQAAFSQYKKVELFPNGQSVGEKIFKTAGFVKPFTEAQLLCTQAGGQLASPRSAAENAALQQLVVAKNEAAFLSMTDSKTEGKFTYPTGESLVYSNWAPGEPNDDGGSEDCVEIFTNGKWNDRACGEKRLVVCEF",
    "glycan array binding signal (z-score)": -0.223
  },
  {
    "binder": "TAL6-4LysM (Trichoderma atroviride) (protein) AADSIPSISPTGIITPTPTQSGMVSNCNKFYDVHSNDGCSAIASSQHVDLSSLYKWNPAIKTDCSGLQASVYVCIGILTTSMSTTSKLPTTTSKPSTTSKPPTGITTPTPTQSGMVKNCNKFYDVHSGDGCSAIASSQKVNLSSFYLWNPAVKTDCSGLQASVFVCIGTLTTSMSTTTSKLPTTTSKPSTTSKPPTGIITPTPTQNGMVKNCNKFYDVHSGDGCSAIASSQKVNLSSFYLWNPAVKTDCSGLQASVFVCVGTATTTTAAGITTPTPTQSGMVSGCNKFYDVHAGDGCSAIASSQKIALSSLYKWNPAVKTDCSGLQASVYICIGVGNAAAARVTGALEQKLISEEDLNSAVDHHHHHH",
    "glycan array binding signal (z-score)": -1.37
  }
]

Alright, here's another binder for you.
Form: binder = MRCL (Homo sapiens), NP_872425.1 (protein) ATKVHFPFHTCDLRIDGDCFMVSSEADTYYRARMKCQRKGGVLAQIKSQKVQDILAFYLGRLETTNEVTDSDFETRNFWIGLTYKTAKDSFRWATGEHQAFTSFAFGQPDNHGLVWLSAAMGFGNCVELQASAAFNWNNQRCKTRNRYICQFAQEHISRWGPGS ; glycan array binding signal (z-score) = 0.948
